Target: T1, human TREM2 on BWZ cells (human, UniProt Q9NZC2 19-230)
T1 construct: whole, on cells; not tied to the cell line; also called BWZ Human TREM2
T1 sequence (looked up): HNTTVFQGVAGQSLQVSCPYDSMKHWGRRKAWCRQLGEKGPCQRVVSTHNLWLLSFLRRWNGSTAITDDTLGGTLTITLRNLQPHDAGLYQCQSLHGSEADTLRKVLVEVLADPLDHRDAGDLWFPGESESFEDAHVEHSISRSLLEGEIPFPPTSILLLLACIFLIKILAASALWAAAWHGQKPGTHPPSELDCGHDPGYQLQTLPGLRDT
Experiment: FACS, BWZ cells
Quantity Measured: binding result

{"Binder": "T1-31 (antibody, IgG1, V domains shown, huIgG1; also called TI-31) VH: QLQLQESGPGLVKPSETLSLTCTVSGGSISSSSYYWGWIRQPPGKGLEWIGSIYYSGSTYYNPSLKSRVTISVDTSKNQFSLKLSSVTAADTAVYYCARDRRMWDPYGMDVWGQGTTVTVSS VL: DIQMTQSPSSLSASVGDRVTITCQASQDISNYLNWYQQKPGKAPKLLIYDASNLETGVPSRFSGSGSGTDFTFTISSLQPEDIATYYCQQYDDFPPITFGGGTKVEIK", "Quantity Measured": "binding result", "Test Value": "no binding"}
{"Binder": "T1-29 (antibody, IgG1, V domains shown, huIgG1; also called TI-29) VH: QLQLQESGPGLVKPSETLSLTCTVSGGSISSSSYYWGWIRQPPGKGLEWIGSIYYSGSTYYNPSLKSRVTISVDTSKNQFSLKLSSVTAADTAVYYCARDGGGTAQADGAYYYGMDVWGQGTTVTVSS VL: EIVLTQSPATLSLSPGERATLSCRASQSVSSYLAWYQQKPGQAPRLLIYDASNRATGIPARFSGSGSGTDFTLTISSLEPEDFAVYYCQQGVNYPFTFGGGTKVEIK", "Quantity Measured": "binding result", "Test Value": "no binding"}
{"Binder": "T1-54 (antibody, IgG1, V domains shown, huIgG1; also called TI-54; ADI-19129) VH: QVQLVQSGAEVKKPGSSVKVSCKASGGTFSSYAISWVRQAPGQGLEWMGGIIPIFGTANYAQKFQGRVTITADESTSTAYMELSSLRSEDTAVYYCARHWYALGSFDIWGQGTMVTVSS VL: EIVMTQSPATLSLSPGERATLSCRASQSVSSYLAWYQQKPGQAPRLLIYDSSNRATGIPARFSGSGSGTDFTLTISSLEPEDFAVYYCQQHDVWPITFGGGTKVEIK", "Quantity Measured": "binding result", "Test Value": "no binding"}
